methodSummary: Pharmacokinetics of tramadol and O-desmethyl tramadol in SD rats with or without crizotinib
conditionDescription: male, Sprague-Dawley, rat, serum, po, 20 mg/kg, CLz/F, Group D: crizotinib 45 mg/kg for 7 days, then single 20 mg/kg tramadol
Source text: Ultra-performance liquid chromatography-tandem mass spectrometry (UPLC-MS/MS) was utilized to measure the concentration of both tramadol and O-desmethyl tramadol. Separation was achieved using a Waters Acquity UPLC BEH C18 column, with dimensions of 2.1 mm × 50 mm and 1.7-µm particle size (Waters Corp., Milford, MA, USA), and quantitation was completed using a Waters XEVO TQD triple quadruple mass spectrometer. […]
measurementLabel: CL/F (mL/min/kg)
Your answer is read as mL/min/kg, so omit the unit and give the number.

CN(C)C[C@H]1CCCC[C@]1(O)c1cccc(O)c1 | 268

Then this molecule:
// query Query: CL/F; subject: COc1cccc(C2(O)CCCCC2CN(C)C)c1 (centres unmarked)
// result 214
